Numbers sourced from the supplement of paper PMC10567573.

B1: SETD8 (parent)
chain: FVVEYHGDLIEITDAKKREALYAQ

Variants of: B1
Test: protein stability index of a GFP-peptide fusion (GPS, HEK-293T) (PSI 1-6); higher = more stable;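 note: lentivirally expressed fusions sorted by FACS into six bins by GFP to DsRed ratio, PSI derived from sequencing read proportions per bin multiplied by bin number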
Conditions: c terminus: a fixed tail appended
# label = Fulfilled if protein stability index >= 2 else Not fulfilled

Example entries and their recorded answers appear below.
CHANGE	CLASS_LABEL
F1I	Fulfilled
T13A	Not fulfilled
L21K	Fulfilled

### Prompt Textbook exercise: given the entry `H6N` , state whether its protein stability index is greater than or equal to 2.
### Response Fulfilled

### Prompt Same again, this time with `E19F`
### Response Fulfilled

### Prompt Same again, this time with `V3F`
### Response Not fulfilled

### Prompt Same again, this time with `K17A`
### Response Not fulfilled

### Prompt Same again, this time with `K16F`
### Response Fulfilled

### Prompt Same again, this time with `A20H`
### Response Fulfilled

### Prompt Same again, this time with `L21M`
### Response Not fulfilled

### Prompt Same again, this time with `E11K`
### Response Fulfilled

### Prompt Same again, this time with `Y22M`
### Response Fulfilled

### Prompt Same again, this time with `V3M`
### Response Fulfilled

### Prompt Same again, this time with `D8P`
### Response Not fulfilled

### Prompt Same again, this time with `D14R`
### Response Not fulfilled

### Prompt Same again, this time with `H6W`
### Response Not fulfilled

### Prompt Same again, this time with `E11L`
### Response Fulfilled

### Prompt Same again, this time with `K17N`
### Response Fulfilled
